- measurement_description: Cytotoxicity against HEK293 cells assessed as reduction in cell viability after 72 hrs by MTT assay
- Type: cell-based
- particulars: human, read-out: LD50

[
  {
    "smiles_entry": "CCN1CCN(c2nc3ccccc3c(-c3ccccc3)c2C)CC1",
    "CC50 at 72 h": "> 24 µM"
  },
  {
    "smiles_entry": "CCN1CCN(c2nc3ccccc3c(-c3ccccc3)c2-c2ccccc2)CC1",
    "CC50 at 72 h": "> 24 µM"
  }
]
